- System: SW-620
- PROTOCOL DETAILS: NCI tumour cell line growth inhibition, 48 h
The source made the active and inactive calls. No stated cut-off is given here; in the data, active = GI50 up to about 1.1 µM and inactive = higher.
Your reply should match one of these outcome classes. TRUE for active, FALSE for inactive

Below are worked cases with known answers.
>  <MOLECULE>
C=CCCOC(=O)CO[N+](=O)[O-]

>  <DISCRETE LABEL>
FALSE

$$$$
>  <MOLECULE>
COC(=O)C(Cc1nc2ccccc2nc1O)/C(=N\NC(C)(C)C)C(=O)Nc1c(C)cc(Br)cc1C (stereo not given)

>  <DISCRETE LABEL>
FALSE

$$$$
>  <MOLECULE>
CCOC(=O)C(C(=O)OCC)C(=S)NC1OC(COC(C)=O)C(OC(C)=O)C(OC(C)=O)C1OC(C)=O (stereo not given)

>  <DISCRETE LABEL>
FALSE

$$$$

Each molecule tested received a call. Report the one for O=C1OCN(c2ccccc2)C12CCN(Cc1ccccc1)CC2 .
FALSE

State the result this test recorded for COC1(C)OC[C@@]2(C)OC(C)C1(C)C2O[Si](C(C)C)(C(C)C)C(C)C (stereo not given in full) .
FALSE

Any idea what this test logged for Cc1c(C(C)C)cc(OCCO)cc1C(C)C ?
FALSE
